All figures here come from ChEMBL document CHEMBL5233258.

target: Seed linoleate 13S-lipoxygenase-1 (Glycine max)
Sequence (P08170 whole entry): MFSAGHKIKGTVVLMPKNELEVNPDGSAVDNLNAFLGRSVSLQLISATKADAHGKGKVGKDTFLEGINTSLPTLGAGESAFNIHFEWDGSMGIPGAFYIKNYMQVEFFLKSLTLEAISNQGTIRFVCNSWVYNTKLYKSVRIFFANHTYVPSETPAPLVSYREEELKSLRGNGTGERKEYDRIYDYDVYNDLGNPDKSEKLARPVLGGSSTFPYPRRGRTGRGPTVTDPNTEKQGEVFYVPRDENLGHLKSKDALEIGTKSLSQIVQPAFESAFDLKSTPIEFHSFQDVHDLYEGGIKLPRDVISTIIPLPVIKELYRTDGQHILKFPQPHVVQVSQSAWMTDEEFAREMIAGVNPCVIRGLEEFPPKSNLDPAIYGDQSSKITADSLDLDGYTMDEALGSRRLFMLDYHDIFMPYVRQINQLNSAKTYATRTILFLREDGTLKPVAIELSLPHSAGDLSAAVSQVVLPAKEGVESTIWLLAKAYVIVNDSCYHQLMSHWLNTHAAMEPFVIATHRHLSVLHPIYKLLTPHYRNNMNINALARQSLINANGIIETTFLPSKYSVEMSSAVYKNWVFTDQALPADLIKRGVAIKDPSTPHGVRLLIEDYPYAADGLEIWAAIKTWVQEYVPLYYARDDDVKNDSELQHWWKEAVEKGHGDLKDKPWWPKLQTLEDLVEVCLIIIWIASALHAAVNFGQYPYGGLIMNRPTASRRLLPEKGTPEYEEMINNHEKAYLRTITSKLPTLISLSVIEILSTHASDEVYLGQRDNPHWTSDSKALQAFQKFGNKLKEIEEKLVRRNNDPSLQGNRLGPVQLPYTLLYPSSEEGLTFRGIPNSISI
quantity: IC50 (nM)
Please give a number only; it is taken to be in nM.

Prompt: Give recorded IC50 with Seed linoleate 13S-lipoxygenase-1 (Glycine max) for the following compound: CCCCCCCCCCCCOC(=O)c1cc(O)c(O)c(O)c1 [DODECYL GALLATE]
Completion: 1100

====

assay: Antioxidant activity in DOPC loaded liposomes by DPPH scavenging assay; format: physicochemical
quantity: IC50 (µM)
Write the answer as a number in µM, unit excluded.

Prompt: Form field: reported IC50 of `COC(=O)c1cc(O)c(O)c(O)c1`
Completion: 8.41

====

test: Inhibition of recombinant HIV-1 integrase using V1/V2 as substrate assessed as 3'-end processing of the substrate incubated for 1 hrs; set-up: species or system Human immunodeficiency virus 1
The entries below come with measured IC50 values attached.
# unit: nM | format: bare number

Record excerpt, results attached:
O=C(OC[C@]1(O)C[C@@H](O)[C@@H](O)[C@H](OC(=O)c2cc(O)c(O)c(O)c2)C1)c1cc(O)c(O)c(O)c1 :: 2790
O=C(O[C@@H]1C[C@H](O)C[C@@H](O)[C@H]1O)c1cc(O)c(O)c(O)c1 :: 710

Now consider the entry below.
Prompt: Give the measured IC50 of `O=C(O[C@@H]1C[C@@H](O)[C@@H](O)[C@H](OC(=O)c2cc(O)c(O)c(O)c2)C1)c1cc(O)c(O)c(O)c1` .
Completion: 330
